- experimental.target: PDGFRA (Homo sapiens (Human))
- Sequence (P16234 24-1089): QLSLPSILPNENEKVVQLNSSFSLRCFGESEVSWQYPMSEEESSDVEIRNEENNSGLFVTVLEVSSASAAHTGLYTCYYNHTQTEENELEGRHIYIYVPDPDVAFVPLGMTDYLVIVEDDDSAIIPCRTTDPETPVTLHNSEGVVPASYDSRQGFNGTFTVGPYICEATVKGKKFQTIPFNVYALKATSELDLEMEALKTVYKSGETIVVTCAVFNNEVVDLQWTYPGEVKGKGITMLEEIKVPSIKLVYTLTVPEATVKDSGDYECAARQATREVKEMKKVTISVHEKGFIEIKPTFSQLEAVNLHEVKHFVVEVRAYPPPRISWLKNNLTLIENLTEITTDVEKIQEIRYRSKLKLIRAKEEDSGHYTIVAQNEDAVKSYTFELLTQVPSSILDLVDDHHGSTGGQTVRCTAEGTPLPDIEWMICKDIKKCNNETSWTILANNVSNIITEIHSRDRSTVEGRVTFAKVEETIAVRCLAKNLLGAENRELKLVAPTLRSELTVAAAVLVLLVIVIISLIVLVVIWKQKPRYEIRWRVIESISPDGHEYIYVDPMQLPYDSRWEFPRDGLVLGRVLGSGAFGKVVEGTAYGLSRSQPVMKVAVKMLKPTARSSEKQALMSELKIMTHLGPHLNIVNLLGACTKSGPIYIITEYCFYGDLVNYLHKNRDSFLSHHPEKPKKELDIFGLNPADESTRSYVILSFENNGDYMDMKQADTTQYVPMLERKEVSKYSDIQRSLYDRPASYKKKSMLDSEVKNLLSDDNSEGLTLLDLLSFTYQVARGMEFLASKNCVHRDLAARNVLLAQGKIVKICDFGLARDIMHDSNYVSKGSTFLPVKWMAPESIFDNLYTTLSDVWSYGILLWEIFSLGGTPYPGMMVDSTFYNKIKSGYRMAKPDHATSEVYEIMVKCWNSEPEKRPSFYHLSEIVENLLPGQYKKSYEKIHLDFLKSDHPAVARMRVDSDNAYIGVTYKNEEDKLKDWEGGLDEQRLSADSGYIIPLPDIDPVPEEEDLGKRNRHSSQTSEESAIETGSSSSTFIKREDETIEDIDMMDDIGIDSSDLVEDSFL
assay.metric: Kd (nM)
Answers are plain numbers, in nM.

Fill in Kd for record "CCN1CCN(Cc2ccc(NC(=O)c3cccc(-c4ccc5nc(NC(=O)C6CC6)sc5n4)c3)cc2C(F)(F)F)CC1"
7.7

====

- experimental.target: FLT4 (Homo sapiens (Human))
- Sequence (P35916 25-1363): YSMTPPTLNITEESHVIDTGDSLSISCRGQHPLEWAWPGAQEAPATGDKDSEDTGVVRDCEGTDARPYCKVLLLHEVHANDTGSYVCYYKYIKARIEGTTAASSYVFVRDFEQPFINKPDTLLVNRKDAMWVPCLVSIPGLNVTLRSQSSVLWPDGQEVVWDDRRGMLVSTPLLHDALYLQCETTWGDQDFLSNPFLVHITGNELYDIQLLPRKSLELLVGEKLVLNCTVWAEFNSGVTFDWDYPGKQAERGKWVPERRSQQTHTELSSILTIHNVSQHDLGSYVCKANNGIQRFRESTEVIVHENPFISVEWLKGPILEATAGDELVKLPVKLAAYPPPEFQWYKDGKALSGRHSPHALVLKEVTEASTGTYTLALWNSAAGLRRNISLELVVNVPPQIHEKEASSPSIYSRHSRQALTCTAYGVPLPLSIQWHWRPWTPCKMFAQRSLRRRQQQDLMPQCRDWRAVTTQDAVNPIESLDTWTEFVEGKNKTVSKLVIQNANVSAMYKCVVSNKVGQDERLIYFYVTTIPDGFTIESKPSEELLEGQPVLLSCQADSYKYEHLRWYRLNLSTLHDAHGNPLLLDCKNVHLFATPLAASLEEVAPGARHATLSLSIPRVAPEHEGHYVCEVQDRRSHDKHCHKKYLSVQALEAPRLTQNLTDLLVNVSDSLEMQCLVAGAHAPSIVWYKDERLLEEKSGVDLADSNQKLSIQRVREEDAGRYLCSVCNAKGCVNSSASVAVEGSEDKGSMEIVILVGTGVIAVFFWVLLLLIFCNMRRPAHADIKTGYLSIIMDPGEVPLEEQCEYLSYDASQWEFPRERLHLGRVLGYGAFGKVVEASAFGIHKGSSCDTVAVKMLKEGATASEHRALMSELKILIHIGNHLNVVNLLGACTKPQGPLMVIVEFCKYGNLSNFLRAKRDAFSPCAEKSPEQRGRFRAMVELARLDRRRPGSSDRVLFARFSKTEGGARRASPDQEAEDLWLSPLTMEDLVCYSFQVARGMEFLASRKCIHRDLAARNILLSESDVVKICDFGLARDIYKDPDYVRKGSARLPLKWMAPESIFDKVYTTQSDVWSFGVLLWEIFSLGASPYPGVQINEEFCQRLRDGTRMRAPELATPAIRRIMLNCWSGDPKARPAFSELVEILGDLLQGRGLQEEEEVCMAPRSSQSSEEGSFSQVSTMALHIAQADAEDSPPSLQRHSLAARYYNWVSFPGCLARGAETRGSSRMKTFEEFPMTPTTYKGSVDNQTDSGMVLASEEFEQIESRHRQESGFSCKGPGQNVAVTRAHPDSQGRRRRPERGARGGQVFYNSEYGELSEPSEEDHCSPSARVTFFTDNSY
assay.metric: Kd (nM)
Answers are plain numbers, in nM.

Fill in Kd for record "CCN1CCN(Cc2ccc(NC(=O)c3cccc(-c4ccc5nc(NC(=O)C6CC6)sc5n4)c3)cc2C(F)(F)F)CC1"
31

====

- experimental.target: PDGFRB (Homo sapiens (Human))
- Sequence (P09619 33-1106): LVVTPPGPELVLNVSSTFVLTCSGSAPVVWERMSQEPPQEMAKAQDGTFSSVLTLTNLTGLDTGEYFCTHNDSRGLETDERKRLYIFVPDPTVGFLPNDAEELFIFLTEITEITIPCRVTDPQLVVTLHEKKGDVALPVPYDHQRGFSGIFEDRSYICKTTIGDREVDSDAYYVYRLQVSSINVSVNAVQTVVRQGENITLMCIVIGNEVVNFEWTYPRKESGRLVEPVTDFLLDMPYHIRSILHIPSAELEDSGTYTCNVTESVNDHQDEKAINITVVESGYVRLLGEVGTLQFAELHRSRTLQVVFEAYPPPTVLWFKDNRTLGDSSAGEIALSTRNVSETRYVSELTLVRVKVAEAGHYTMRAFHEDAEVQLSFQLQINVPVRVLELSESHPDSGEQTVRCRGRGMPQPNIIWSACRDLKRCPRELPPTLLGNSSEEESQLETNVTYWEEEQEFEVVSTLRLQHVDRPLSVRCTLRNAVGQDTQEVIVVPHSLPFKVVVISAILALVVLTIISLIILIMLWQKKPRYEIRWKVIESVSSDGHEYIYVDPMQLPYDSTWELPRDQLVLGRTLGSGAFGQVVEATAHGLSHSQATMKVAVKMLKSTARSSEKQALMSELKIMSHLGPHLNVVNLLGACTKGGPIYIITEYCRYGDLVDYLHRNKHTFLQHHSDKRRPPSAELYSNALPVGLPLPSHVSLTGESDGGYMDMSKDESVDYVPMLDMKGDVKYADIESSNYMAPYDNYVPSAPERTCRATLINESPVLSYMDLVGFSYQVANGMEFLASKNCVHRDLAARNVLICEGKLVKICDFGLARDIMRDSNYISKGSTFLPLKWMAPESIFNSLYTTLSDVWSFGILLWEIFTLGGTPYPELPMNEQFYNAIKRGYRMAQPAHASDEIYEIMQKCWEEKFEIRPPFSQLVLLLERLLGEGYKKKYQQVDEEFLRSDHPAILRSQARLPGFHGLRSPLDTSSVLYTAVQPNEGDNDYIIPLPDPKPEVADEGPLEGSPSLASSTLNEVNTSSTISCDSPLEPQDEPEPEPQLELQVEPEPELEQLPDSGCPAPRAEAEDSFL
assay.metric: Kd (nM)
Numbers only, in nM.

Fill in Kd for record CCN1CCN(Cc2ccc(NC(=O)c3cccc(-c4ccc5nc(NC(=O)C6CC6)sc5n4)c3)cc2C(F)(F)F)CC1 [Compound 2]
1.8
